Overview of recorded protein stability index for various variants
B1: FBF1 (parent)
chain: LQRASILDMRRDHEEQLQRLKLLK

Variants of: B1
Assay: protein stability index of a GFP-peptide fusion (GPS, HEK-293T) (PSI 1-6); higher = more stable;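 note: lentivirally expressed fusions sorted by FACS into six bins by GFP to DsRed ratio, PSI derived from sequencing read proportions per bin multiplied by bin number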
Settings: c terminus: a fixed tail appended
MEASUREMENT_LABEL: protein stability index

1) E14L :: 3.17
2) E15Q :: 3.18
3) K21G :: 3.49
4) Q16L :: 2.73
5) Q2Y :: 2.77
6) R11C :: 3.36
7) K24Y :: 2.81
8) D8C :: 3.2
9) L1E :: 4.42
10) R19M :: 3.03
11) A4V :: 2.57
